These entries and their values trace back to ChEMBL document CHEMBL1143883.

Assay: Plasma clearance in rat at 1 mg/kg, iv or 2 mg/kg, po
Assay type: ADME, organism-based
Listed here are molecules together with their documented clearance.
I only need the number, in mL/min/kg, no unit after it.

The examples below pair each entry with its known result.
| Molecule | clearance [mL/min/kg] |
| --- | --- |
| CC(c1nc(-c2ccc(S(C)(=O)=O)cc2Cl)no1)[C@H](N)C(F)=C1CCCC1.O=C(O)C(F)(F)F (some centres undefined) | 20 |
| C[C@H](c1nc(-c2ccc(S(C)(=O)=O)cc2Cl)no1)[C@H](N)C(=O)N1CCCC1.O=C(O)C(F)(F)F | 6 |
| CS(=O)(=O)c1ccc(-c2noc([C@@H](CCO)[C@H](N)C(F)=C3CCCC3)n2)c(Cl)c1.O=C(O)C(F)(F)F | 51 |

Endpoint output: clearance of CS(=O)(=O)c1ccc(-c2noc([C@@H](CC3CC3)[C@H](N)C(F)=C3CCCC3)n2)c(Cl)c1.O=C(O)C(F)(F)F . Value?
54

====

Assay: Oral bioavailability in rat at 2 mg/kg
Format: ADME, organism-based
Experimental Parameters: in vivo
Listed here are compounds together with their documented bioavailability.
I only need the number, in %, no unit after it.

The examples below pair each entry with its known result.
| Compound | Unit Info | Quantitative Result |
| --- | --- | --- |
| CS(=O)(=O)c1ccc(-c2noc([C@@H](CCO)[C@H](N)C(F)=C3CCCC3)n2)c(Cl)c1.O=C(O)C(F)(F)F | % | 4 |
| CC(c1nc(-c2ccc(S(C)(=O)=O)cc2Cl)no1)[C@H](N)C(F)=C1CCCC1.O=C(O)C(F)(F)F (some centres undefined) | % | 62 |
| CS(=O)(=O)c1ccc(-c2noc([C@@H](CC3CC3)[C@H](N)C(F)=C3CCCC3)n2)c(Cl)c1.O=C(O)C(F)(F)F | % | 1 |

From here, focus on the item given below.
Endpoint output: bioavailability of C[C@H](c1nc(-c2ccc(S(C)(=O)=O)cc2Cl)no1)[C@H](N)C(=O)N1CCCC1.O=C(O)C(F)(F)F . Value?
27

====

Assay: Metabolic stability in rat hepatocytes after 60 mins
Format: ADME, cell-based, Hepatocyte
Experimental Parameters: read-out: Stability
Measured Quantity: remaining at 1 h (%)
I only need the number, in %, no unit after it.

| Compound | Unit Info | Quantitative Result |
| --- | --- | --- |
| CC(c1nc(-c2ccc(S(C)(=O)=O)cc2Cl)no1)[C@H](N)C(F)=C1CCCC1.O=C(O)C(F)(F)F (some centres not stated) | % | 3 |

From here, focus on the item given below.
Endpoint output: remaining at 1 h of C[C@H](c1nc(-c2ccc(S(C)(=O)=O)cc2Cl)no1)[C@H](N)C(=O)N1CCCC1.O=C(O)C(F)(F)F . Value?
88
